Recorded values, source patent US7713971B2.

Tested on: insulin-resistant male rat (Ico: ZUCKER-fa/fa)
procedure-summary: Normalization of metabolic parameters (cholesterol, plasma triglycerides) in insulin-resistant rat
Assay type: in vivo
condition-summary: 96 h; at 10 mg/kg, oral route, once per day for four days, Zucker fa/fa rat unfed 16-18 hours; read-out: Plasma triglycerides
result-type: change in vivo at 10 mg/kg (%)
# number only, unit % dropped from output

Example entries and their recorded answers appear below.
{"molecule": "CCCCCCCn1c(=O)c(NCCc2ccc(SC(C)(C)C(=O)O)cc2)nn(CCCC(F)(F)F)c1=O [Example 123]", "change in vivo at 10 mg/kg [%]": -20}
{"molecule": "CCOC(=O)C(C)(C)Oc1cccc(CCCCNc2nn(CCC#N)c(=O)n(CCCC(F)(F)F)c2=O)c1 [Example 81]", "change in vivo at 10 mg/kg [%]": -17}
{"molecule": "CCOC(=O)C(C)(C)Oc1cccc(CCCCCOc2nn(C)c(=O)n(CCCC(F)(F)F)c2=O)c1 [Example 16]", "change in vivo at 10 mg/kg [%]": -15}

Moving on to another molecule below.
stdin: Look up change in vivo at 10 mg/kg of CCCCCCCn1c(=O)c(NCCCOc2ccc(OC(C)(C)C(=O)OCC)cc2)nn(C)c1=O [Example 47] and report it.
stdout: -45

###

Tested on: insulin-resistant male rat (Ico: ZUCKER-fa/fa)
procedure-summary: Normalization of metabolic parameters (cholesterol, plasma triglycerides) in insulin-resistant rat
Assay type: in vivo
condition-summary: 96 h; at 10 mg/kg, oral route, once per day for four days, Zucker fa/fa rat unfed 16-18 hours; read-out: Plasma triglycerides
result-type: change in vivo at 10 mg/kg (%)
# number only, unit % dropped from output

{"molecule": "CCCCCCCn1c(=O)c(NCCCc2cccc(OC(C)(C)C(=O)OCC)c2)nn(C)c1=O [Example 67]", "result-type": "change in vivo at 10 mg/kg", "recorded-number": -23}

stdin: Look up change in vivo at 10 mg/kg of CCOC(=O)C(C)(C)Oc1cccc(CCCCNc2nn(CCCC(F)(F)F)c(=O)n(CC=C(C)C)c2=O)c1 [Example 76] and report it.
stdout: -7

stdin: Look up change in vivo at 10 mg/kg of CCCCCCCn1c(=O)c(OCCCCCc2cccc(OC(C)(C)C(=O)OCC)c2)nn(C)c1=O [Example 17] and report it.
stdout: -37

stdin: Look up change in vivo at 10 mg/kg of CCCCCCCn1c(=O)c(NCCc2ccc(SC(C)(C)C(=O)OCC)cc2)nn(C)c1=O [Example 122] and report it.
stdout: -35

###

The following compounds are listed with their measured pEC50 values.
study-system: human PPARδ (Homo sapiens, UniProt Q03181)
Construct: expressed in transfected cells; host or cells: Cos-7 cells (ATCC, CRL-1651)
Sequence (Q03181 211-439 limits assumed): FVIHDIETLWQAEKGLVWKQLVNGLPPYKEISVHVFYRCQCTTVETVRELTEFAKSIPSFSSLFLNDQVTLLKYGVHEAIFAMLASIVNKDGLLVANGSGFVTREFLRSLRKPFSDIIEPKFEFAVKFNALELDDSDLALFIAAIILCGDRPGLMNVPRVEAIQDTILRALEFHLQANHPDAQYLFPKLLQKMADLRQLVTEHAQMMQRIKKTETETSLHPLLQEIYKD
procedure-summary: Reporter gene transactivation, hPPAR-GAL4 delta
Type: cell-based
condition-summary: transfected Cos-7 cells, Gal-4 luciferase reporter, 24 hours treatment
pEC50: −log10 of the molar value.

Example entries and their recorded answers appear below.
{"compound": "CCCCn1nc(OCCCCCc2cccc(OC(C)(C)C(=O)OCC)c2)c(=O)n(CCCC)c1=O", "study-system": "human PPARδ (Homo sapiens, UniProt Q03181)", "pEC50": "~5.52"}
{"compound": "CC(C)(Oc1ccc(C(=O)c2ccc(Cl)cc2)cc1)C(=O)O [Fenofibric acid, reference compound]", "study-system": "human PPARδ (Homo sapiens, UniProt Q03181)", "pEC50": "< 4.00"}
{"compound": "CCCCCCCN(CCc1ccc(OC(C)(C)C(=O)O)cc1)c1nn(C)c(=O)n(C)c1=O", "study-system": "human PPARδ (Homo sapiens, UniProt Q03181)", "pEC50": "6.00 to 6.52"}
{"compound": "CCCCCCCn1c(=O)c(OCCCCc2ccc(OC(C)(C)C(=O)OCC)cc2)nn(CCCC(F)(F)F)c1=O", "study-system": "human PPARδ (Homo sapiens, UniProt Q03181)", "pEC50": "5.00 to 5.52"}
{"compound": "Cn1nc(NCCCCc2cccc(SC(C)(C)C(=O)O)c2)c(=O)n(CCCC(F)(F)F)c1=O", "study-system": "human PPARδ (Homo sapiens, UniProt Q03181)", "pEC50": "< 5.00"}

Moving on to another compound below.
stdin: Look up pEC50 of CCOC(=O)C(C)(C)Oc1ccc(OCCNc2nn(CCCC(F)(F)F)c(=O)n(CCCC(F)(F)F)c2=O)cc1 and report it.
stdout: 5.52 to 6.00

###

The following compounds are listed with their measured change in vivo at 10 mg/kg values.
Tested on: insulin-resistant male rat (Ico: ZUCKER-fa/fa)
procedure-summary: Normalization of metabolic parameters (cholesterol, plasma triglycerides) in insulin-resistant rat
Type: in vivo
condition-summary: 96 h; at 10 mg/kg, oral route, once per day for four days, Zucker fa/fa rat unfed 16-18 hours; read-out: Plasma triglycerides
Description: Normalization of metabolic parameters (cholesterol, plasma triglycerides) in an insulin-resistant male rat (Ico: ZUCKER-fa/fa), unfed for 16-18 hours, after treatment by oral route, once per day for four days, with the compounds to be evaluated or their administration vehicle. These metabolic parameters are measured by spectrophotometry at the beginning and the end of each animal's treatment.
# number only, unit % dropped from output

Example entries and their recorded answers appear below.
{"compound": "Cn1nc(NCCCCc2cccc(SC(C)(C)C(=O)O)c2)c(=O)n(CCCC(F)(F)F)c1=O [Example 96]", "change in vivo at 10 mg/kg [%]": -60}
{"compound": "CCOC(=O)C(C)(C)Oc1ccc(OCCCNc2nn(C)c(=O)n(CCCC(F)(F)F)c2=O)cc1 [Example 46]", "change in vivo at 10 mg/kg [%]": -32}
{"compound": "CCCCCCCN(CCc1ccc(OC(C)(C)C(=O)OCC)cc1)c1nn(C)c(=O)n(C)c1=O [Example 112]", "change in vivo at 10 mg/kg [%]": -31}

Moving on to another compound below.
stdin: Look up change in vivo at 10 mg/kg of CCOC(=O)C(C)(C)Oc1cccc(CCCCNc2nn(CCCC(F)(F)F)c(=O)n(C)c2=O)c1 [Example 74] and report it.
stdout: -26

###

study-system: human PPARγ (Homo sapiens, UniProt P37231)
Sequence (P37231 238-503 limits assumed): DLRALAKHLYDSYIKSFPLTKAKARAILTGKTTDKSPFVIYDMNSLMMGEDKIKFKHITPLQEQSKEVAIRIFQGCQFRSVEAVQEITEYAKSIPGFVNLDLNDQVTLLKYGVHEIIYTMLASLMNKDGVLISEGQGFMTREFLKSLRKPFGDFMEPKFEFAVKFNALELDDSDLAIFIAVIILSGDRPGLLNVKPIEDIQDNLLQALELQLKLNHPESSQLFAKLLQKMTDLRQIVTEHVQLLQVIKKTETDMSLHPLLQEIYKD
procedure-summary: Reporter gene transactivation, hPPAR-GAL4 gamma
condition-summary: transfected Cos-7 cells, Gal-4 luciferase reporter, 24 hours treatment
The following compounds are listed with their measured EC50 values.

Example entries and their recorded answers appear below.
{"structure-string": "CCCCCCCn1c(=O)c(OCCCCc2ccc(OC(C)(C)C(=O)OCC)cc2)nn(CCCC(F)(F)F)c1=O", "EC50": "~1 µM"}
{"structure-string": "CCCCCCCn1c(=O)c(OCCCc2cccc(OC(C)(C)C(=O)OCC)c2)nn(CCCC(F)(F)F)c1=O", "EC50": "3 to 10 µM"}
{"structure-string": "CCOC(=O)C(C)(C)Oc1ccc(CCNc2nn(CCCC3CCCCC3)c(=O)n(CCCC(F)(F)F)c2=O)cc1", "EC50": "~10 µM"}
{"structure-string": "CCCCCCCn1nc(NCCCc2cccc(OC(C)(C)C(=O)OCC)c2)c(=O)n(C)c1=O", "EC50": "3 to 10 µM"}

Moving on to another compound below.
stdin: Look up EC50 of CCCCn1c(=O)c(OCCCCCc2cccc(OC(C)(C)C(=O)OCC)c2)nn(C)c1=O and report it.
stdout: 1 to 3 µM

###

study-system: human PPARδ (Homo sapiens, UniProt Q03181)
procedure-summary: Reporter gene transactivation, hPPAR-GAL4 delta
condition-summary: transfected Cos-7 cells, Gal-4 luciferase reporter, 24 hours treatment
pEC50: −log10 of the molar value.
The following compounds are listed with their measured pEC50 values.

Example entries and their recorded answers appear below.
{"structure-string": "CCOC(=O)C(C)(C)Oc1ccc(OCCCOc2nn(CCCC(F)(F)F)c(=O)n(CCCC(F)(F)F)c2=O)cc1", "study-system": "human PPARδ (Homo sapiens, UniProt Q03181)", "result": "~5.52"}
{"structure-string": "CCOC(=O)C(C)(C)Oc1ccc(CCNc2nn(COCc3ccccc3)c(=O)n(COCc3ccccc3)c2=O)cc1", "study-system": "human PPARδ (Homo sapiens, UniProt Q03181)", "result": "< 5.00"}
{"structure-string": "CCCCCCCn1nc(NCCc2ccc(OC(C)(C)C(=O)OCC)cc2)c(=O)n(Cc2ccccc2)c1=O", "study-system": "human PPARδ (Homo sapiens, UniProt Q03181)", "result": "5.00 to 5.52"}
{"structure-string": "CCCCCCCn1c(=O)c(NCCCOc2ccc(OC(C)(C)C(=O)OCC)cc2)nn(CCCC(F)(F)F)c1=O", "study-system": "human PPARδ (Homo sapiens, UniProt Q03181)", "result": "~5.52"}
{"structure-string": "CCCCn1c(=O)c(OCCCCCc2cccc(OC(C)(C)C(=O)OCC)c2)nn(CCCC(F)(F)F)c1=O", "study-system": "human PPARδ (Homo sapiens, UniProt Q03181)", "result": "~5.00"}
{"structure-string": "CCCCCCCn1c(=O)c(NCCCCc2cccc(OC(C)(C)C(=O)OCC)c2)nn(Cc2ccccc2)c1=O", "study-system": "human PPARδ (Homo sapiens, UniProt Q03181)", "result": "5.00 to 5.52"}
{"structure-string": "CCOC(=O)C(C)(C)Oc1cccc(CCCCNc2nn(CCCC(F)(F)F)c(=O)n(CCCC(F)(F)F)c2=O)c1", "study-system": "human PPARδ (Homo sapiens, UniProt Q03181)", "result": "< 5.00"}
{"structure-string": "CCCCCCCn1c(=O)c(NCCc2ccc(SC(C)(C)C(=O)OCC)cc2)nn(C)c1=O", "study-system": "human PPARδ (Homo sapiens, UniProt Q03181)", "result": "< 5.00"}

Moving on to another compound below.
stdin: Look up pEC50 of CCOC(=O)C(C)(C)Oc1cccc(CCCNc2nn(CCCC(F)(F)F)c(=O)n(CCCC(F)(F)F)c2=O)c1 and report it.
stdout: ~5.00
